Quick list: kon per entry.
target: T1, human GPC3-his tag protein (human, UniProt P51654 25-559, limits assumed); assay: SPR Biacore 8K, mAb captured, one or two doses GPC3-his
T1 construct: recombinant soluble antigen used as analyte in all Biacore runs; also called recombinant GPC3 protein; rhGPC3-His; not shown: His tag

1. 52H5D3B8-10# chimeric mAb (antibody, V domains shown, CDR3 mutant of the 52H5D3B8 chimeric mAb (human IgG1)) VH: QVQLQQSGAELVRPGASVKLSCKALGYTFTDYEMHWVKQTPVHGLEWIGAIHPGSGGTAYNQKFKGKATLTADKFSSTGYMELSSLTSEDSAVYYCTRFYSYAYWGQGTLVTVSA VL: DVVMTQTPLSLPVSLGDQASISCRSSQSLVHSNGNTYLQWYLQKPGQSPKLLIYKVSNRFSGVPDRFSGSGSGTDFILKISRVEAEDLGVYFCFQSTHVPYTFGGGTKLEIK    291000 M⁻¹ s⁻¹

Query string: // lookup kon for 52H5D3B8-11# chimeric mAb (antibody, V domains shown, CDR3 mutant of the 52H5D3B8 chimeric mAb (human IgG1)) VH: QVQLQQSGAELVRPGASVKLSCKALGYTFTDYEMHWVKQTPVHGLEWIGAIHPGSGGTAYNQKFKGKATLTADKFSSTGYMELSSLTSEDSAVYYCTRFYSFAYWGQGTLVTVSA VL: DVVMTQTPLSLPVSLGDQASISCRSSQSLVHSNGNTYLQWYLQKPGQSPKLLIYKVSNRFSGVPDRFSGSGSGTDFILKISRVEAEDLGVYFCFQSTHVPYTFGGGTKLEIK
Result string: 326000 M⁻¹ s⁻¹

Query string: For the binder 52H5D3B8-4# chimeric mAb (antibody, V domains shown, CDR3 mutant of the 52H5D3B8 chimeric mAb (human IgG1)) VH: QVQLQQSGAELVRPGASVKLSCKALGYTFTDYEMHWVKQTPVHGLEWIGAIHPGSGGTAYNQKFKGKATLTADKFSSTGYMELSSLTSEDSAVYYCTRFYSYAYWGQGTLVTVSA VL: DVVMTQTPLSLPVSLGDQASISCRSSQSLVHSNGNTYLQWYLQKPGQSPKLLIYKVSNRFSGVPDRFSGSGSGTDFILKISRVEAEDLGVYFCSQSTHVPYTFGGGTKLEIK , what kon is on record?
Result string: 335000 M⁻¹ s⁻¹

Query string: What does the data say about its kon? Entry: 52H5D3B8-8# chimeric mAb (antibody, V domains shown, CDR3 mutant of the 52H5D3B8 chimeric mAb (human IgG1)) VH: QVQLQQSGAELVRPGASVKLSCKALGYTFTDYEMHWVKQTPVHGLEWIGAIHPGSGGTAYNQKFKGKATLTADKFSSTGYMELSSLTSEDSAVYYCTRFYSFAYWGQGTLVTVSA VL: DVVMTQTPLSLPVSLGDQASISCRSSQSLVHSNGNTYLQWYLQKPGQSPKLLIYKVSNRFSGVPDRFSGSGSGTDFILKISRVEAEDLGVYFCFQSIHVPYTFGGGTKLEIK
Result string: 494000 M⁻¹ s⁻¹

Query string: Which value of kon has been reported for 52H5D3B8-3# chimeric mAb (antibody, V domains shown, CDR3 mutant of the 52H5D3B8 chimeric mAb (human IgG1)) VH: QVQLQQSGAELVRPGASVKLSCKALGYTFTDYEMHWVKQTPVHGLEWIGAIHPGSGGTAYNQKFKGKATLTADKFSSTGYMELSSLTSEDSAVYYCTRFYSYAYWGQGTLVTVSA VL: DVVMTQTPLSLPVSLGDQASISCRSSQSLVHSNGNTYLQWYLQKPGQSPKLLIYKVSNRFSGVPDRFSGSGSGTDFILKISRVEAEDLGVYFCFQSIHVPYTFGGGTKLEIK in the records?
Result string: 525000 M⁻¹ s⁻¹
